- assay_procedure: Cell Viability - LYMP2-003 (AID 965);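 further: cells exposed to compounds for 24 h before reading; nearly all actives have a fitted effect of over 50% in size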
- particulars: LYMP2-003 lymphoblastoid cell viability; series mostly up to 92.2 µM
Inconclusive results are not listed. The source made the active and inactive calls. The call rests on the fitted dose curve; in most records, active means well fitted cell-killing curve with a large enough effect; inconclusive means small, poorly fitted or top-dose-only effect, or effect the other way; inactive means flat fitted curve, though single readings scatter.
Lab note: assign the record to one of Yes for active, No for inactive

Exercise: Any idea what this test logged for Cc1ccc(O)c(N)c1 ?
Solution: Yes

Exercise: For OC1CCCCC1 , what call appears in the results of this test?
Solution: No

Exercise: Write down the call the test reported for this molecule. Item: Cc1ccc(S(N)(=O)=O)cc1
Solution: No

Exercise: What did the test return for c1ccc2c(c1)ccc1ccccc12 ?
Solution: No

Exercise: // param item: c1ccc(COCc2ccccc2)cc1 ; yields the recorded call
Solution: No

Exercise: For this molecule, state the assay outcome: CC(CCC(=O)O)(c1ccc(O)cc1)c1ccc(O)cc1
Solution: No

Exercise: Recorded call for c1ccc2ncccc2c1 ?
Solution: No

Exercise: Test call, this molecule: COc1cc(-c2ccc(N=C=O)c(OC)c2)ccc1N=C=O
Solution: No

Exercise: Could you please tell me the result logged for CC1=C(/C=C/C(C)=C/C=C/C(C)=C/C=O)C(C)(C)CCC1 in this assay?
Solution: Yes

Exercise: What call does the record list for O=[N+]([O-])c1cc(Cl)c(Cl)c(Cl)c1Cl ?
Solution: No

Exercise: Short answer needed: outcome of this test for C/C(Cl)=C/CCl ?
Solution: No

Exercise: Status in this test for O=C(O)/C=C/c1ccc(/C=C/C(=O)O)cc1 ?
Solution: No

Exercise: Fill in: this test's call for O=C1c2ccccc2C(=O)C1(O)O is ___
Solution: Yes
